methodDescription: log P determination by LC-MS in the acidic range
Type: physicochemical
testParameters: LC-MS in the acidic range
Catalogue of molecules with associated log P (acid)
Keep the answer to the number alone.

Sample answers from the record:
Cc1cc(NC(=O)c2cccnc2)nn1Cc1nn(C)c(=O)n1C    0.62
Cc1cc(NC(=O)c2cncc(F)c2)nn1CC(F)(F)F    1.79
Cc1cc(C)nc(CNC(=O)n2nc(NC(=O)c3cccnc3)cc2C)n1    1.43

Alright, here's another molecule for you.
If you can, please state the reported log P (acid) value of COC(=O)c1cccc(Cn2ccc(NC(=O)c3cccnc3)n2)c1 .
1.57

Reference source: patent US20160106102A1
